Below, each entry is listed with its recorded MEC (minimum effective concentration).
Target: recombinant guanylate cyclase reporter cell line (Rattus norvegicus, UniProt P19686+P20595)
Construct: expressed in transfected cells; host or cells: recombinant reporter cell line
Sequence (P20595 whole entry): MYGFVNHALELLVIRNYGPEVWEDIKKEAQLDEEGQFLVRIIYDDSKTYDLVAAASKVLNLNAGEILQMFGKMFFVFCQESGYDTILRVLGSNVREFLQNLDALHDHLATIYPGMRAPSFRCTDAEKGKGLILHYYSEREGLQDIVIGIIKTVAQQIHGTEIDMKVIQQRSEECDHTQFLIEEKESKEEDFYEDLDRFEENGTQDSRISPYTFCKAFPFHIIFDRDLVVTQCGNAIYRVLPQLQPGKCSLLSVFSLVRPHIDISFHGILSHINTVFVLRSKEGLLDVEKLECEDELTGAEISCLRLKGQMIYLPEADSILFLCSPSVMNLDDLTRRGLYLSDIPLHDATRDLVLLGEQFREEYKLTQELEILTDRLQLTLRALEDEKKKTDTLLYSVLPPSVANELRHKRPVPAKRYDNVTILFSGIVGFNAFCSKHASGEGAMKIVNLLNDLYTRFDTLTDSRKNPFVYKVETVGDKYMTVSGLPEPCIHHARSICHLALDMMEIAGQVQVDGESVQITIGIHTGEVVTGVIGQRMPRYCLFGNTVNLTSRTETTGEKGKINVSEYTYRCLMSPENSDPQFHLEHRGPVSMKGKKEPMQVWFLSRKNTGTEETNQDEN
Sequence (P19686 whole entry): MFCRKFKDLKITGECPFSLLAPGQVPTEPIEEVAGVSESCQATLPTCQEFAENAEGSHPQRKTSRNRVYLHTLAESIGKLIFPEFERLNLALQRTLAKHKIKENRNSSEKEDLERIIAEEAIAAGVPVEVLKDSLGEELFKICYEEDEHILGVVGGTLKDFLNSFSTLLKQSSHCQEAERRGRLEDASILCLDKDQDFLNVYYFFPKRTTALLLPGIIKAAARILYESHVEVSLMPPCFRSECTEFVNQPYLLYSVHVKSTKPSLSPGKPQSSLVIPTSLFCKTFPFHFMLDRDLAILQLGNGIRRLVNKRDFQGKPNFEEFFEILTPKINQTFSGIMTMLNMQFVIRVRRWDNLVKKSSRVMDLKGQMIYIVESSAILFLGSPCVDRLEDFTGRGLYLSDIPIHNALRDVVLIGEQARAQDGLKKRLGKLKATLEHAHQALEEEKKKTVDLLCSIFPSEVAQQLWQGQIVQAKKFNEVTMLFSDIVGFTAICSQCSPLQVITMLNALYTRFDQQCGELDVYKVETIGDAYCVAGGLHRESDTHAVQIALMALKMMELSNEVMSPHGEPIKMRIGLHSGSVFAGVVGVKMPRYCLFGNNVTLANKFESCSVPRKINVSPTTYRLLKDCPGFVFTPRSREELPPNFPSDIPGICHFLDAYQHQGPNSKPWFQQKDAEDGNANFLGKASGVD
Test Details: Effect on a recombinant guanylate cyclase reporter cell line
Format: cell-based

{"columns": ["Molecule", "MEC (minimum effective concentration)"],
 "data": [
  ["COC(=O)N(Cc1ccc(F)cc1)c1c(N)nc(-n2nc(Cc3ccccc3F)c3ncccc32)nc1N [Example 4]", "0.1 µM"],
  ["COC(=O)N(Cc1ccccc1F)c1c(N)nc(-n2nc(Cc3ccccc3F)c3ncccc32)nc1N [Example 3]", "0.1 µM"],
  ["COC(=O)N(Cc1ccccc1)c1cnc(-n2nc(Cc3ccccc3F)c3ncccc32)nc1N [Example 2]", "0.3 µM"],
  ["COC(=O)N(Cc1ccccc1)c1c(N)nc(-n2nc(Cc3ccccc3F)c3ncccc32)nc1N [Example 5]", "0.1 µM"],
  ["CC(C)OC(=O)N(Cc1ccccc1)c1c(N)nc(-n2nc(Cc3ccccc3F)c3ncc(F)cc32)nc1N [Example 6]", "0.1 µM"]
]}

Origin of the recorded values: patent US9090609B2
